Assay: S. cerevisiae RM11-1a growth modifiers, primary screen, strain RM11-1a, OD600, basal, 24 h (AID 1177);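 also: cultures grown under basal conditions with no added stressor; test concentration not given here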
Conditions: OD600, 24 h, higher = more signal, called active from +8 up or from −8 down
// thresholds for z-score classes: label 0 (below 0.4), label 1 (0.4 to below 1), label 2 (1 or more)

Determine which band this compound sits in: C=CCN1C(=O)[C@]2(O[C@H](CCO)[C@@H]([Si](C)(C)c3ccc(OC)cc3)[C@@H]2C)c2cc(NC(=O)c3ccc(OC)cc3)ccc21
label 2

Determine which band this compound sits in: C=CCC(OC(C)=O)[C@@H]1[C@@H](N(Cc2ccc(-c3ccccc3)cc2)C(=O)Cc2ccc(F)cc2)c2cc(OCCCO)ccc2N1C(=O)Cc1ccc2ccccc2c1 (some centres undefined)
label 0

Determine which band this compound sits in: Cc1cccc([C@H]2C[C@H]3C(Br)=C[C@@H]2C(=O)[C@]32CO2)c1
label 1

Determine which band this compound sits in: COc1ccc(C(O)C2C=CC3C(=O)N(c4ccccc4)C(=O)C3N2Nc2ccc(C(C)C)cc2)c2ccccc12 (centres undefined)
label 1

Determine which band this compound sits in: NC(=O)[C@H]1[C@@H]2C(=O)O[C@@H](c3ccccc3)[C@@H](c3ccccc3)N2[C@@H](c2ccc(O)cc2)[C@]12C(=O)Nc1ccc(C#CC3=CCCCC3)cc12
label 2

Determine which band this compound sits in: CC(=O)NCCCC[C@@H]1NC(=O)[C@@H]2C[C@H](C(=O)NCCCCCCN)[C@H](c3cccc(OCCO)c3)N2C1=O
label 0

Determine which band this compound sits in: CN(C)C(=O)[C@@]1(Cc2ccccc2)COC(c2ccc(OCCCO)cc2)=N1
label 1

Determine which band this compound sits in: CCOC(=O)C[C@H]1[C@H](OC(=O)c2ccccc2-c2ccccc2)[C@@H](NC(=O)c2ccccc2)c2cc(OCCCO)ccc2N1C(=O)c1ccccc1
label 0

Determine which band this compound sits in: COCCOC(=O)N1C(=O)[C@@]2(c3cc(C#CCC(C(=O)OC)C(=O)OC)ccc31)[C@H](C(=O)NC[C@H](O)c1ccccc1)[C@H]1C(=O)O[C@H](c3ccccc3)[C@H](c3ccccc3)N1[C@@H]2c1ccc(O)cc1
label 2

Determine which band this compound sits in: C=CCNC(=O)[C@H]1[C@@H]2C(=O)O[C@@H](c3ccccc3)[C@@H](c3ccccc3)N2[C@@H](c2ccc(OCCO)cc2)[C@]12C(=O)Nc1ccc(C#CCNC(N)=O)cc12
label 2

Determine which band this compound sits in: CN1C(=O)[C@@]2(Cc3ccccc3)N=C(c3ccc(OCCCO)cc3)O[C@H]2c2ccccc21
label 0

Determine which band this compound sits in: CN1C(=O)C2C=CC(C(O)c3ccc(F)cc3)N(NC(=O)OC(C)(C)C)C2C1=O (centres undefined)
label 2

Determine which band this compound sits in: [N-]=[N+]=NCc1ccccc1[C@@H]1OC(c2ccc(OCCCO)cc2)=N[C@]1(Cc1ccccc1)C(=O)NCCN1CCOCC1
label 2

Determine which band this compound sits in: CN1C=C(C(=O)OCCS(C)(=O)=O)C(C(=O)OCCS(C)(=O)=O)=CC(c2ccc(CO)cc2)=CC1c1cccs1 (centres undefined)
label 0
